Each entry below carries its recorded MIC.
- Test system: S. pneumoniae AB 14
- assay details: MIC, agar incorporation method
- Format: cell-based, Streptococcus pneumoniae
- run parameters: S. No. 37, S. pneumoniae AB 14
reported endpoint: MIC (µg/mL)

molecule="O=C(NC[C@H]1CN(c2ccc(N3CCN(c4ccc([N+](=O)[O-])s4)CC3)c(F)c2)C(=O)O1)C(Cl)Cl [compound 9]" units_of_measure=µg/mL relation_symbol== readout_value=0.25
molecule="C[C@H](Cl)C(=O)NCC1CN(c2ccc(N3CCN(c4ccc([N+](=O)[O-])s4)CC3)c(F)c2)C(=O)O1 (stereo partly shown) [Compound No. 7]" units_of_measure=µg/mL relation_symbol== readout_value=1
molecule="CC(=O)NC[C@H]1CN(c2ccc(N3CCN(c4cc(C(OC(C)=O)OC(C)=O)sc4[N+](=O)[O-])CC3)c(F)c2)C(=O)O1 [Compound No. 5]" units_of_measure=µg/mL relation_symbol== readout_value=0.5
molecule="CC(=O)NC[C@H]1CN(c2ccc(N3CCN(c4ccc([N+](=O)[O-])s4)CC3)cc2)C(=O)O1 [Compound No. 6]" units_of_measure=µg/mL relation_symbol=< readout_value=0.125

---

- Tested on: H. influenzae 451
- assay details: MIC against Haemophilus strains
- Type: cell-based
- run parameters: s. No. 8, H. influenzae 451
reported endpoint: MIC

molecule="C[C@H]1COc2c(N3CCN(C)CC3)c(F)cc3c(=O)c(C(=O)O)cn1c23 [LevoFloxaci, reference compound]" target_or_system="H. influenzae 451" readout_value="0.015 µg/mL"
molecule=CC(=O)NC[C@H]1CN(c2ccc(N3CCN(c4cc(C(OC(C)=O)OC(C)=O)sc4[N+](=O)[O-])CC3)c(F)c2)C(=O)O1 target_or_system="H. influenzae 451" readout_value=">16 µg/mL"
molecule=O=C(NC[C@H]1CN(c2ccc(N3CCN(c4ccc([N+](=O)[O-])s4)CC3)c(F)c2)C(=O)O1)C(Cl)Cl target_or_system="H. influenzae 451" readout_value=">16 µg/mL"

---

Each entry below carries its recorded MIC.
- Test system: S. pneumoniae AB-3
- assay details: MIC, agar incorporation method
- Type: cell-based, Streptococcus pneumoniae
- run parameters: Streptococcus pneumoniae, AB3; S. No. 32, S. pneumoniae AB-3; read-out: MIC
reported endpoint: MIC (µg/mL)

molecule="CC(=O)NC[C@H]1CN(c2ccc(N3CCN(c4ccc(C=O)s4)CC3)c(F)c2)C(=O)O1 [Compound No. 2]" relation_symbol=< readout_value=0.25
molecule="CC(=O)NC[C@H]1CN(c2ccc(N3CCN(c4ccc(C=O)o4)CC3)c(F)c2)C(=O)O1 [Compound No. 3]" relation_symbol== readout_value=0.25
molecule="CC(=O)NC[C@H]1CN(c2ccc(N3CCN(c4ccc([N+](=O)[O-])o4)CC3)c(F)c2)C(=O)O1 [Compound No. 4]" relation_symbol== readout_value=8
molecule="CC(=O)NC[C@H]1CN(c2ccc(N3CCN(c4ccc([N+](=O)[O-])s4)CC3)c(F)c2)C(=O)O1 [Compound No. 1]" relation_symbol== readout_value=0.06

---

Each entry below carries its recorded MIC.
- Tested on: S. pneumoniae AB 25
- assay details: MIC, agar incorporation method
- Assay type: cell-based, Streptococcus pneumoniae
- run parameters: S. No. 45, S. pneumoniae AB 25
reported endpoint: MIC (µg/mL)

molecule="C[C@H](Cl)C(=O)NCC1CN(c2ccc(N3CCN(c4ccc([N+](=O)[O-])s4)CC3)c(F)c2)C(=O)O1 (stereo partly shown) [Compound No. 7]" target_or_system="S. pneumoniae AB 25" reported_endpoint=MIC readout_value=0.5
molecule="CC(=O)NC[C@H]1CN(c2ccc(N3CCN(c4ccc([N+](=O)[O-])s4)CC3)cc2)C(=O)O1 [Compound No. 6]" target_or_system="S. pneumoniae AB 25" reported_endpoint=MIC readout_value=0.5
molecule="CC(=O)NC[C@H]1CN(c2ccc(N3CCN(c4cc(C(OC(C)=O)OC(C)=O)sc4[N+](=O)[O-])CC3)c(F)c2)C(=O)O1 [Compound No. 5]" target_or_system="S. pneumoniae AB 25" reported_endpoint=MIC readout_value=0.5
molecule="O=C(NC[C@H]1CN(c2ccc(N3CCN(c4ccc([N+](=O)[O-])s4)CC3)c(F)c2)C(=O)O1)C(Cl)Cl [compound 9]" target_or_system="S. pneumoniae AB 25" reported_endpoint=MIC readout_value=0.25

---

Each entry below carries its recorded MIC.
- Test system: M. tuberculosis V-3093
- assay details: MIC against M. tuberculosis strains, agar dilution
- Type: cell-based, Mycobacterium tuberculosis
- run parameters: S. No. 14 Mt-, Middle Brook 7H10 + OADC, 37° C., 14-21 days
reported endpoint: MIC (µg/mL)

molecule_smiles=NNC(=O)c1ccncc1 units_of_measure=µg/mL readout_value=0.06
molecule_smiles=CC[C@H]1OC(=O)[C@H](C)[C@@H](O[C@H]2C[C@@](C)(OC)[C@@H](O)[C@H](C)O2)[C@H](C)[C@@H](O[C@@H]2O[C@H](C)C[C@H](N(C)C)[C@H]2O)[C@](C)(OC)C[C@@H](C)C(=O)[C@H](C)[C@@H](O)[C@]1(C)O units_of_measure=µg/mL readout_value=16
molecule_smiles=CCc1cc(C(N)=S)ccn1 units_of_measure=µg/mL readout_value=2.0

---

Each entry below carries its recorded MIC.
- Tested on: S. pneumoniae CS1221
- assay details: MIC, agar incorporation method
- Type: cell-based, Streptococcus pneumoniae
- run parameters: S. No. 34, S. pneumoniae CS1221
reported endpoint: MIC (µg/mL)

compound="C[C@H](Cl)C(=O)NCC1CN(c2ccc(N3CCN(c4ccc([N+](=O)[O-])s4)CC3)c(F)c2)C(=O)O1 (stereo partly shown) [Compound No. 7]" readout_value=0.5
compound="CC(=O)NC[C@H]1CN(c2ccc(N3CCN(c4cc(C(OC(C)=O)OC(C)=O)sc4[N+](=O)[O-])CC3)c(F)c2)C(=O)O1 [Compound No. 5]" readout_value=0.5
compound="O=C(NC[C@H]1CN(c2ccc(N3CCN(c4ccc([N+](=O)[O-])s4)CC3)c(F)c2)C(=O)O1)C(Cl)Cl [compound 9]" readout_value=0.25
compound="CC(=O)NC[C@H]1CN(c2ccc(N3CCN(c4ccc([N+](=O)[O-])s4)CC3)cc2)C(=O)O1 [Compound No. 6]" readout_value=0.25

---

- System: S. aureus (MRSA) ST450
- assay details: MIC, agar incorporation method
- Assay type: cell-based, Staphylococcus aureus
- run parameters: Staphylococcus aureus; S. No. 6, S. aureus (MRSA) ST450; read-out: MIC
Each entry below carries its recorded MIC.
reported endpoint: MIC (µg/mL)

molecule_smiles=CC(=O)NC[C@H]1CN(c2ccc(N3CCN(c4ccc(C=O)o4)CC3)c(F)c2)C(=O)O1 readout_value=1
molecule_smiles=CC(=O)NC[C@H]1CN(c2ccc(N3CCN(c4ccc([N+](=O)[O-])o4)CC3)c(F)c2)C(=O)O1 readout_value=8
molecule_smiles=CC(=O)NC[C@H]1CN(c2ccc(N3CCN(c4ccc(C=O)s4)CC3)c(F)c2)C(=O)O1 readout_value=1
molecule_smiles=CC(=O)NC[C@H]1CN(c2ccc(N3CCN(c4ccc([N+](=O)[O-])s4)CC3)c(F)c2)C(=O)O1 readout_value=0.25

---

- System: S. pneumoniae AB 10
- assay details: MIC, agar incorporation method
- Format: cell-based, Streptococcus pneumoniae
- run parameters: Streptococcus pneumoniae, AB10; S. No. 35, S. pneumoniae AB 10; read-out: MIC
Each entry below carries its recorded MIC.
reported endpoint: MIC (µg/mL)

molecule_smiles=CC(=O)NC[C@H]1CN(c2ccc(N3CCN(c4ccc([N+](=O)[O-])o4)CC3)c(F)c2)C(=O)O1 reported_endpoint=MIC relation_symbol== readout_value=4
molecule_smiles=CC(=O)NC[C@H]1CN(c2ccc(N3CCN(c4ccc(C=O)o4)CC3)c(F)c2)C(=O)O1 reported_endpoint=MIC relation_symbol=< readout_value=0.125
molecule_smiles=CC(=O)NC[C@H]1CN(c2ccc(N3CCN(c4ccc([N+](=O)[O-])s4)CC3)c(F)c2)C(=O)O1 reported_endpoint=MIC relation_symbol== readout_value=0.06
molecule_smiles=CC(=O)NC[C@H]1CN(c2ccc(N3CCN(c4ccc(C=O)s4)CC3)c(F)c2)C(=O)O1 reported_endpoint=MIC relation_symbol=< readout_value=0.25

---

- System: S. haemo ATCC 29970
- assay details: MIC, agar incorporation method
- Type: cell-based
- run parameters: S. No. 15, S. haemo ATCC 29970
Each entry below carries its recorded MIC.
reported endpoint: MIC (µg/mL)

compound="C[C@H](Cl)C(=O)NCC1CN(c2ccc(N3CCN(c4ccc([N+](=O)[O-])s4)CC3)c(F)c2)C(=O)O1 (stereo partly shown) [Compound No. 7]" relation_symbol== readout_value=2
compound="O=C(NC[C@H]1CN(c2ccc(N3CCN(c4ccc([N+](=O)[O-])s4)CC3)c(F)c2)C(=O)O1)C(Cl)Cl [compound 9]" relation_symbol== readout_value=0.5
compound="CC(=O)NC[C@H]1CN(c2ccc(N3CCN(c4ccc([N+](=O)[O-])s4)CC3)cc2)C(=O)O1 [Compound No. 6]" relation_symbol== readout_value=1
compound="CC(=O)NC[C@H]1CN(c2ccc(N3CCN(c4cc(C(OC(C)=O)OC(C)=O)sc4[N+](=O)[O-])CC3)c(F)c2)C(=O)O1 [Compound No. 5]" relation_symbol=< readout_value=0.06
